Target: Cytochrome P450 3A4 (Homo sapiens, UniProt P08684)
Sequence (P08684 whole entry): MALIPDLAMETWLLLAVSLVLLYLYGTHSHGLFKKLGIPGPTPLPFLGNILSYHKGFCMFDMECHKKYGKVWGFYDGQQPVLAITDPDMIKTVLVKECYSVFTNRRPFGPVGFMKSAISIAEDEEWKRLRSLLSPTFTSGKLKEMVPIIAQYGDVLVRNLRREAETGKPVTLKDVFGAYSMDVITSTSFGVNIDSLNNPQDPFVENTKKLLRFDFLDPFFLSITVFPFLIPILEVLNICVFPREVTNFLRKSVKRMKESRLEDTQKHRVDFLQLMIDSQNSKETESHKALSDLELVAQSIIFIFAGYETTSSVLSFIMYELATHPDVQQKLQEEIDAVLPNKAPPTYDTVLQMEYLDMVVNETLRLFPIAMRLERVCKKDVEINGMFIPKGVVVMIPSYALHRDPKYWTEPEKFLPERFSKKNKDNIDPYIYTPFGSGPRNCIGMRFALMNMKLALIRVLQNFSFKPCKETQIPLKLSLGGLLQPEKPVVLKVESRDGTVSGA
Assay: Inhibition of CYP3A4 in pooled human liver microsome using midazolam substrate
Format: ADME, microsomes
quantity_name: pIC50
pIC50 (log units): -log10 of the concentration in mol/L.

Given "CC(C)c1onc(-c2c(Cl)cccc2Cl)c1COc1ccc(-c2ccc3c(C(=O)O)cccc3c2)cc1" , state its recorded pIC50.
5.14

----------
Target: Bile acid receptor (Homo sapiens) (UniProt Q96RI1)
Sequence (Q96RI1 whole entry): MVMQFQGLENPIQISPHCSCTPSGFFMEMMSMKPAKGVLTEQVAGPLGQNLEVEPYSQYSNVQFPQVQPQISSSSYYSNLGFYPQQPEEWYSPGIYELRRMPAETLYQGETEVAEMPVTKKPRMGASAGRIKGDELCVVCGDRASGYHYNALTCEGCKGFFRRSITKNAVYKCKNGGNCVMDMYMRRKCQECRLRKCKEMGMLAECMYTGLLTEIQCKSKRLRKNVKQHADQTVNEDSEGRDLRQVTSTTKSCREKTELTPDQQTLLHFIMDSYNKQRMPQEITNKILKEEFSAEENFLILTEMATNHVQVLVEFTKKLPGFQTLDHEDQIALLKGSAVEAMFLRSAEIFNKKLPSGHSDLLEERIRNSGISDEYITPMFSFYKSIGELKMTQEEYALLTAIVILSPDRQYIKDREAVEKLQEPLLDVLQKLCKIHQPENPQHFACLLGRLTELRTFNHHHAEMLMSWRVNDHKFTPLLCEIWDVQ
Experiment: Agonist activity at FXR expressed in african green monkey CV1 cells by luciferase reporter transient transfection assay relative to GW-4064
Type: functional, cell-based
Conditions: CV-1
quantity_name: %max (%)
The response must be a number in % with no trailing unit.

| smiles | experimental_value |
| --- | --- |
| CC(C)c1onc(-c2c(Cl)cccc2Cl)c1COc1ccc(-c2ccc3ccc(C(=O)O)cc3c2)cc1 | 90 |

Given "CC(C)c1onc(-c2c(Cl)cccc2Cl)c1COc1ccc(-c2ccc3cc(C(=O)O)ccc3c2)cc1" , state its recorded %max.
87

Now this one: "CC(C)c1onc(-c2c(Cl)cccc2Cl)c1COc1ccc(-c2ccc3c(C(=O)O)cccc3c2)cc1"
104

Now this one: "CC(C)c1onc(-c2c(Cl)cccc2Cl)c1COc1ccc(-c2ccc3cccc(C(=O)O)c3c2)cc1"
27
